Listing of recorded Potency by entry.
Assay: Quantitative High-Throughput drug screen in 47 multiple myeloma cell lines against the NCATS MIPE library collection: OCIMY5_PLB cell viability assay (AID 1918988); note: potency is the fitted concentration of half-maximal effect; nearly all actives have a fitted effect of over 65% in size
Settings: OCI-MY5 myeloma viability, ATP luminescence, 48 h; series mostly up to 45.8 µM
Records with an inconclusive call do not appear. Calls of active or inactive are those of the source. Calls come from the whole dose curve; as a rule, active = well fitted cell-killing curve with a large enough effect; inconclusive = small, poorly fitted or top-dose-only effect, or effect the other way; inactive = no such curve, though single readings can be large or run the other way.

{"Molecule": "CCCc1nn(C)c2c(=O)[nH]c(-c3cc(S(=O)(=O)N4CCN(C)CC4)ccc3OCC)nc12", "Potency": "7.43 µM (active)"}
{"Molecule": "O=C(Nc1cccnc1)N1CCC(Cc2cccc(Oc3ccc(C(F)(F)F)cn3)c2)CC1", "Potency": "18.7 µM (active)"}
{"Molecule": "CCOC(=O)N[C@@H]1CC[C@@H]2[C@@H](C1)C[C@H]1C(=O)O[C@H](C)[C@H]1[C@@H]2C=Cc1ccc(-c2cccc(F)c2)cn1", "Potency": "23.5 µM (active)"}
{"Molecule": "Cc1ccc(N(CC2=NCCN2)c2cccc(O)c2)cc1", "Potency": "23.5 µM (active)"}
{"Molecule": "O=C1CCCC2=C1C(c1[nH]ncc1Cl)N=C(Nc1nc3ccccc3o1)N2 (centres undefined)", "Potency": "23.5 µM (active)"}
{"Molecule": "CN(C)c1ccc(C2Nc3ccc4ccccc4c3C3=C2C(=O)CC(C)(C)C3)cc1Br (centres undefined)", "Potency": "23.5 µM (active)"}
{"Molecule": "Clc1ccc(Nc2nnc(Cc3ccncc3)c3ccccc23)cc1", "Potency": "6.62 µM (active)"}
{"Molecule": "Cn1cc(-c2ccc3nnc(C(F)(F)c4ccc5ncccc5c4)n3n2)cn1", "Potency": "16.6 µM (active)"}
{"Molecule": "COc1cc(Oc2ccnc3cc(OC)c(OC)cc23)ccc1NC(=O)NC(C)c1nccs1 (centres undefined)", "Potency": "16.6 µM (active)"}

* * *

Experiment: MultiTox-Fluor Cytotoxicity Assay - LYMP1-003 - Dead Cells (AID 961);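 note: cells exposed to compound for 16 h at 37 °C; nearly all actives have a fitted effect of over 70% in size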
Conditions: LYMP1-003 lymphoblastoid cells, dead-cell protease fluorescence; series mostly up to 92.2 µM
Active and inactive are the calls of the source. Calls come from the whole dose curve; as a rule, active = well fitted cell-killing curve with a large enough effect; inconclusive = small, poorly fitted or top-dose-only effect, or effect the other way; inactive = flat fitted curve, though single readings scatter.
Test Readout: outcome

{"Molecular String": "CC(=O)Oc1ccccc1C(=O)O", "Reported Measurement": "inactive"}
{"Molecular String": "Cn1cnc([N+](=O)[O-])c1Sc1ncnc2nc[nH]c12", "Reported Measurement": "inactive"}
{"Molecular String": "NS(=O)(=O)c1cc2c(cc1Cl)NC=NS2(=O)=O", "Reported Measurement": "inactive"}
{"Molecular String": "NC(=O)c1cnccn1", "Reported Measurement": "inactive"}
{"Molecular String": "NC(N)=NC(=O)c1nc(Cl)c(N)nc1N", "Reported Measurement": "inactive"}

* * *

Assay: Quantitative High-Throughput drug screen in 47 multiple myeloma cell lines against the NCATS MIPE library collection: PE2_PLB cell viability assay (AID 1919869); note: nearly all actives have a fitted effect of over 35% in size
Details: PE2_PLB myeloma cells viability, ATP luminescence, 48 h; series mostly up to 45.8 µM
Records with an inconclusive call do not appear. Activity calls are given as the source filed them. Calls follow the shape of the dose curve; as a rule, active = well fitted cell-killing curve with a large enough effect; inconclusive = small, poorly fitted or top-dose-only effect, or effect the other way; inactive = no such curve, though single readings can be large or run the other way.
Outcomes: active, inactive

{"Compound": "CCN(CC)CCCC(C)Nc1nc(C)cc(Nc2ccc3nc(C)cc(N)c3c2)n1 (stereo unspecified)", "Category Label": "active"}
{"Compound": "C[C@@H]1CN(Cc2ccc(F)cc2)[C@@H](C)CN1C(=O)c1cc2c(C(=O)C(=O)N(C)C)cn(C)c2cc1Cl", "Category Label": "active"}
{"Compound": "CC(C=CC1=C(C)CCCC1(C)C)=CC=CC(C)=CC(=O)O", "Category Label": "active"}
{"Compound": "Nc1nc2ccc(OC(F)(F)F)cc2s1", "Category Label": "inactive"}
{"Compound": "COc1ccc(COc2cc3oc(=O)c4cc(C(C)O)ccc4c3cc2OC)cc1 (stereo unspecified)", "Category Label": "active"}
{"Compound": "Cc1c(CCOc2ccc(C(=O)O)cc2)c2cc(Cl)ccc2n1C(c1ccccc1)c1ccccc1", "Category Label": "inactive"}
{"Compound": "CCOc1ccc(Cc2cc([C@@H]3O[C@H](CO)[C@@H](O)[C@H](O)[C@@H]3O)ccc2Cl)cc1", "Category Label": "inactive"}
{"Compound": "CN(C)c1ccc(Nc2nc(N)n(C(=O)c3c(F)cccc3F)n2)cc1", "Category Label": "active"}
{"Compound": "c1ccc([C@H]2CN3CCSC3=N2)cc1", "Category Label": "inactive"}
{"Compound": "COc1ccccc1[C@H](c1cccc2ccccc12)[C@@](C)(C#N)C(=O)N1CCC(c2cccc(C(F)(F)F)c2)CC1", "Category Label": "active"}
{"Compound": "O=C(Nc1nc2ccccc2n1CCN1CCOCC1)c1cccc([N+](=O)[O-])c1", "Category Label": "active"}
{"Compound": "CC1(C)SCCN(S(=O)(=O)c2ccc(OCC#CCO)cc2)[C@@H]1C(=O)NO", "Category Label": "inactive"}
{"Compound": "Nc1nc2c(ncn2COCCO)c(=O)[nH]1", "Category Label": "inactive"}
{"Compound": "CCn1c(-c2nonc2N)nc2c(C#CC(C)(C)O)ncc(OC[C@H]3CCCNC3)c21", "Category Label": "active"}
{"Compound": "O=C(Nc1cccnc1)N1CCC(Cc2cccc(Oc3ccc(C(F)(F)F)cn3)c2)CC1", "Category Label": "active"}
{"Compound": "CCCC(CCC)C(=O)O", "Category Label": "inactive"}
{"Compound": "Cc1cccc(-c2[nH]c(C(C)(C)C)nc2-c2ccc3nccnc3c2)n1", "Category Label": "active"}
{"Compound": "CCn1cc(C(=O)O)c(=O)c2cc(F)c(N3CCNC(C)C3)c(F)c21 (stereo unspecified)", "Category Label": "inactive"}
{"Compound": "O=C1CCCC2=C1C(c1[nH]ncc1Cl)N=C(Nc1nc3ccccc3o1)N2 (stereo unspecified)", "Category Label": "active"}
{"Compound": "OC(CCN1CCCCC1)(c1ccccc1)C1CC2C=CC1C2 (stereo unspecified)", "Category Label": "inactive"}
{"Compound": "COc1ccc(CCN2CCN(CCCc3ccccc3)CC2)cc1OC", "Category Label": "inactive"}
